Measured values drawn from PubChem BioAssay AID2252 for this set.

# System: THP-1 viability, CellTiter-Glo luminescence, 72 h
# experiment description: PubChem AID 2252
pEC50: −log10 of the molar value.
Entries and their pEC50

Recorded results for 10 compounds are shown here.
O=C(Cc1ccccc1)NNC(=S)NC(=O)c1cccs1 = 4.76
O=C(Oc1c(Cl)cc(Cl)c2cccnc12)c1cccc([N+](=O)[O-])c1 = 4.83
Cc1ccc(Nc2nc(NCCO)c3ccccc3n2)cc1C = 5.51
COc1ccc(Nc2ccnc3ccccc23)cc1 = 4.51
O=C(NCc1ccco1)C1CCN(C(=O)c2cc3sccc3n2Cc2ccc(Cl)cc2)CC1 = 4.56
CCN(CC)CCn1c(NCc2cc(OC)ccc2OC)nc2ccccc21 = 4.37
O=C(N/N=C/c1ccc([N+](=O)[O-])s1)c1cccnc1 = 4.83
CCc1nc(SCC(=O)Nc2ccc(N(C)C)cc2)c2ccccc2n1 = 4.45
O=C1c2cccc3cccc(c23)C(=O)C1(O)O = 4.52
CC(NCc1ccc(Cl)c(Cl)c1)C(O)c1ccccc1 (centres undefined) = 4.51

Here is the next item to consider.
Q: What reported pEC50 corresponds to NC1=NC[C@H](c2ccccc2)N1CCc1cc(C(F)(F)F)cc(C(F)(F)F)c1 on THP-1 viability, CellTiter-Glo luminescence, 72 h?
Result: 5.42

* * *

# Test system: THP-1 viability, CellTiter-Glo luminescence, 72 h
# experiment description: PubChem AID 2252
outcome measure: EC50

Recorded results for 8 molecules are shown here.
CC(/C=N/Nc1nc2ccccc2[nH]1)=C\c1ccccc1 = 33.4 µM
COc1cccc(/C=C/C(=O)c2cccc([N+](=O)[O-])c2)c1OC = 22.3 µM
Oc1c(C(Nc2ccccn2)c2cccnc2)cc(Cl)c2cccnc12 (centres undefined) = 6.1 µM
CCCCC(CC)CN=C(N)NC(N)=NCCCCCCN=C(N)NC(N)=NCC(CC)CCCC (centres undefined) = 0.83 µM
CN(C)c1ccc2nc3ccc(=[N+](C)C)cc-3sc2c1 = 0.72 µM
NC1=NC[C@@H](Cc2ccc(O)cc2)N1CCCCC1CCCCC1 = 6.98 µM
NC1=NC[C@H](CC2CCCCC2)N1CCc1cc(C(F)(F)F)cc(C(F)(F)F)c1 = 6.33 µM
COc1cc(CNCCO)cc(Cl)c1OCc1ccc(Cl)cc1Cl = 10.8 µM

Q: What reported EC50 corresponds to Cc1nc(NC2=NCN(CCCN3CCOCC3)CN2)nc2c(C)cccc12 on THP-1 viability, CellTiter-Glo luminescence, 72 h?
Result: 13.9 µM

Q: What reported EC50 corresponds to CCN1CCN(Cc2ccc(NC(=O)c3ccc(C)c(NC(=O)c4c[nH]c5cc(C(F)(F)F)ccc5c4=O)c3)cc2C(F)(F)F)CC1 on THP-1 viability, CellTiter-Glo luminescence, 72 h?
Result: 2.04 µM

Q: What reported EC50 corresponds to Cc1nn(-c2nc3ccccc3[nH]2)c(N)c1-c1ccccc1 on THP-1 viability, CellTiter-Glo luminescence, 72 h?
Result: 28.7 µM

Q: What reported EC50 corresponds to O=C1CN(/N=C/c2ccc([N+](=O)[O-])o2)C(=O)N1 on THP-1 viability, CellTiter-Glo luminescence, 72 h?
Result: 47.3 µM

Q: What reported EC50 corresponds to CN1CC(C(=O)c2ccc(Cl)cc2)C(c2ccc(Cl)cc2Cl)C1 (centres undefined) on THP-1 viability, CellTiter-Glo luminescence, 72 h?
Result: 27.5 µM

Q: What reported EC50 corresponds to COc1ccc(NC2=NC3(CCCCC3)N=C(N)N2)cc1 on THP-1 viability, CellTiter-Glo luminescence, 72 h?
Result: 27 µM

Q: What reported EC50 corresponds to COc1ccc(C(=O)Nc2cc3c(cc2OC)CCCC3)cc1Br on THP-1 viability, CellTiter-Glo luminescence, 72 h?
Result: < 0.1 µM

Q: What reported EC50 corresponds to C[C@@H](NC(=O)/C(C#N)=C/c1ccc(O)c(O)c1)c1ccccc1 on THP-1 viability, CellTiter-Glo luminescence, 72 h?
Result: 15.2 µM
